Each recorded value in this set is attributed to ChEMBL document CHEMBL1201862.

# GI50 listing for each entry below
tested on: HOP-18; assay: NCI tumour cell line growth inhibition, 48 h
Active and inactive are the calls of the source. No stated cut-off is given here; in the data, active = GI50 up to about 1.1 µM and inactive = higher.

Cc1cccc(C)c1NC(=O)CCCC(=O)C1CCC/C1=N\NC(=O)C(=O)NN (centres undefined) | > 100 µM (inactive)
Nc1c(-c2ccccc2-c2c(N)[n+]([O-])c3ccccc3[n+]2[O-])[n+]([O-])c2ccccc2[n+]1[O-] | 7.71 µM (inactive)
CCCC(=O)N[C@H]1CCc2cc(OC)c(OC)c(OC)c2-c2ccc(SC)c(=O)cc21 | > 35.8 µM (inactive)

Next compound, GI50 to be filled in.
stdin: Provide only the value of recorded GI50 for COc1ccccc1C1c2cc3c(cc2OC(O)(CO)C1C(=O)O)OCO3.COc1ccccc1C1c2cc3c(cc2OC2(O)COC(=O)C12)OCO3 (centres undefined)
stdout: > 100 µM (inactive)

====

tested on: Malme-3M; test: NCI tumour cell line growth inhibition, 48 h
Activity calls are given as the source filed them. Rule as the data show it: active = GI50 up to about 1.1 µM and inactive = higher.
Property Name: GI50

Below: 4 compounds and their reported GI50.
CN1CC(=O)N2Cc3ccccc3-n3cccc3C2C1 (stereo not drawn) | > 100 µM (inactive)
O=c1c2ccccc2[nH]c2ccc3c(Cl)n[nH]c3c12 | 19.1 µM (inactive)
CC1CCN(C(C)C)P(=S)(Cc2ccccc2)O1 (stereo not drawn) | > 100 µM (inactive)
O=C1CCCC1C(O)(C(F)(F)Cl)C(F)(F)Cl (stereo not drawn) | > 10 µM (inactive)

stdin: Provide only the value of recorded GI50 for CC(C)=CCC[C@@H](C)C1=C(O)C(=O)C(C)=C(Nc2ccccc2I)C1=O
stdout: 12.2 µM (inactive)

stdin: Provide only the value of recorded GI50 for Cc1cc(C)nc(NC(=O)c2ccc(Br)s2)c1
stdout: > 100 µM (inactive)

stdin: Provide only the value of recorded GI50 for O=C1N=C2SC(=S)N=C(S)N2NC12c1ccccc1-c1ccccc12
stdout: > 10 µM (inactive)

stdin: Provide only the value of recorded GI50 for CC(C)[C@@H]1CC[C@@H](C)C[C@H]1OC(=O)/C=C1\C(C(=O)O[C@@H]2C[C@H](C)CC[C@H]2C(C)C)[C@H]2C=C[C@@H]1O2 (stereo partly drawn)
stdout: > 100 µM (inactive)

stdin: Provide only the value of recorded GI50 for CC(=O)N1c2ccccc2C2=CC3C4C(=O)N(c5ccccc5)C(=O)C4C21C1C(=O)N(c2ccccc2)C(=O)C31 (stereo not drawn)
stdout: 99.5 µM (inactive)

====

test system: UACC-62; test: NCI tumour cell line growth inhibition, 48 h
The source made the active and inactive calls. Rule as the data show it: active = GI50 up to about 1.1 µM and inactive = higher.
Give your call using only these classes: active, inactive

CCOc1cc2c(cnc3c4cc(OC)c(OC)cc4ccc23)cc1OC | inactive

stdin: Called result for O=c1[nH]c2ccc(CC(=S)N3CCOCC3)cc2o1
stdout: inactive

stdin: Called result for Nc1ccc2nc(-c3ccccn3)c(-c3ccccn3)nc2c1
stdout: inactive

stdin: Called result for CC(C)=CCC[C@@H](C)C1=C(O)C(=O)C(C)=C(Nc2ccccc2I)C1=O
stdout: inactive

stdin: Called result for COc1ccc(/C=C2\CN(C)C/C(=C\c3ccc(OC)c(OC)c3OC)C2=O)c(OC)c1OC
stdout: active

stdin: Called result for NC1=NN(c2ccccc2)C(=O)C1C(=O)C(=O)Nc1cccc(C(F)(F)F)c1 (stereo unspecified)
stdout: inactive

stdin: Called result for COc1cc(C=O)c(-c2cc(OC)c(OC)cc2C=O)cc1OC
stdout: inactive

stdin: Called result for CC(=O)OCC1OC(n2c(=O)n(-c3ccccc3)c(=O)c3ccccc32)C(OC(C)=O)C(OC(C)=O)C1OC(C)=O (stereo unspecified)
stdout: inactive

stdin: Called result for CC(C)(C)C(=O)N1C(C(=O)O)Cc2ccccc2[C@@H]1Cc1ccccc1 (stereo partly specified)
stdout: inactive
